Reference source: the supplement of paper PMC9262897

test system: E. coli TESEC Mtb Asd; experiment: growth (OD600 after 10 h); higher = more growth (less inhibition); conditions: arabinose induction (level): Low; compound 0.1 mM; raw OD600 reference: median of DMSO wells 0.417, cell-free background 0.041
Where a name gives a salt, the structure may show the parent alone.
Would you kindly list growth for each of these molecules?
Could you keep your reply to the number by itself?

Please give measured growth of the following entry: CC(=O)[C@H]1CC[C@H]2[C@@H]3CC[C@H]4C[C@H](O)CC[C@]4(C)[C@H]3C(=O)C[C@]12C [Alfaxalone]
0.275

Specify measured growth for C=CCN1CC[C@]23c4c5ccc(O)c4O[C@H]2C(=O)CC[C@@]3(O)[C@H]1C5 [Naloxone hydrochloride] .
0.498

Output measured growth for this item: CN1[C@@H]2CC[C@H]1C[C@@H](OC1c3ccccc3CCc3ccccc31)C2 [Deptropine citrate]
0.0858

Could you please provide reported growth for CCCC[N+]1(C)[C@@H]2CC(OC(=O)[C@H](CO)c3ccccc3)C[C@H]1[C@@H]1O[C@@H]12 (some centres undefined) [Butylscopolammonium (n-) bromide] ? Thanks!
0.412
